- Test Method Notes: Critical micellar concentration (CMC) by ANS fluorescence
- Type: physicochemical
- Conditions: qualitative
Readout Kind: CMC compared with the corresponding native/underivatised saponin

>  <Compound>
CC(=O)OC1C(C)OC(OC2C(C)OC(OC(=O)C34CCC(C)(C)CC3C3=CCC5C6(C)CCC(OC7OC(C(=O)NC(C)(CO)CO)C(O)C(OC8OCC(O)C(O)C8O)C7OC7OC(CO)C(O)C(O)C7O)C(C)(C=NNC(=O)CCCCCN7C(=O)C=CC7=O)C6CCC5(C)C3(C)CC4O)C(OC3OC(C)C(OC4OCC(O)C(OC5OC(CO)C(O)C(O)C5O)C4O)C(O)C3O)C2O)C(O)C1OC1OCC(O)C(O)C1O (stereo not drawn)

>  <Recorded Value>
lower CMC values

$$$$
>  <Compound>
CC(=O)OC1C(C)OC(OC2C(C)OC(OC(=O)[C@]34CCC(C)(C)CC3C3=CCC5[C@@]6(C)CC[C@H](OC7OC(C(=O)NC(C)(CO)CO)C(O)C(OC8OCC(O)C(O)C8O)C7OC7OC(CO)C(O)C(O)C7O)[C@@](C)(C=O)C6CC[C@@]5(C)[C@]3(C)C[C@H]4O)C(OC3OC(C)C(OC4OCC(O)C(OC5OC(CO)C(O)C(O)C5O)C4O)C(O)C3O)C2O)C(O)C1OC1OC(C)C(O)C(O)C1O (stereo partly drawn)

>  <Recorded Value>
lower CMC values

$$$$
>  <Compound>
CC(=O)OC1C(C)OC(OC2C(C)OC(OC(=O)[C@]34CCC(C)(C)CC3C3=CCC5[C@@]6(C)CC[C@H](OC7OC(C(=O)NCCN8C(=O)C=CC8=O)C(O)C(OC8OCC(O)C(O)C8O)C7OC7OC(CO)C(O)C(O)C7O)[C@@](C)(C=O)C6CC[C@@]5(C)[C@]3(C)C[C@H]4O)C(OC3OC(C)C(OC4OCC(O)C(OC5OC(CO)C(O)C(O)C5O)C4O)C(O)C3O)C2O)C(O)C1OC1OCC(O)C(O)C1O (stereo partly drawn)

>  <Recorded Value>
lower CMC values

$$$$

Source listed as patent US20230365617A1.
